# study-target: TEAD4 (Homo sapiens (Human), UniProt Q15561)
# Sequence (Q15561 whole entry, species assumed): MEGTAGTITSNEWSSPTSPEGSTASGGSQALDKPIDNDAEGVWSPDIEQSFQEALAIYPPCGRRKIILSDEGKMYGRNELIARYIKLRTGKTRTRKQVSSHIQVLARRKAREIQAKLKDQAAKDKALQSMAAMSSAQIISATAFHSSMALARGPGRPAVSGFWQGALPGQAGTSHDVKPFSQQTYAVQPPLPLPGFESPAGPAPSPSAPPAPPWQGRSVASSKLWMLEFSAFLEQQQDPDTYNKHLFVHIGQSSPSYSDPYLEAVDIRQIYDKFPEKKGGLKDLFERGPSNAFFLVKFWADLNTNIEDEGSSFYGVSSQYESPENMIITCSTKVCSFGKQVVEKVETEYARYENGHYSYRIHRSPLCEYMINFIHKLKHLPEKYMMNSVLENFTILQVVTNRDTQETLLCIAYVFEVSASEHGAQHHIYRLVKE
# assay-remarks: TR-FRET lipid pocket probe competition assay (Lipid HTRF), TEAD4;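 also: His-tagged TEAD4 with biotinylated lipid-pocket probe, read by Europium anti-His and XL665 streptavidin, where probe displacement lowers the TR-FRET signal, IC50 from a four-parameter fit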
# Type: binding
# condition-description: 4 hours pre-incubation; read-out: Lipid HTRF TEAD4 IC50
pIC50: −log10 of the molar value.

{"molecule": "C=CC(=O)NCc1nn(-c2ccc(OC(F)(F)F)cc2)c2nccc([C@H](C)O)c12", "pIC50": 7.11}
{"molecule": "O=C(/C=C\\Cl)NCc1nn(-c2ccc(OC(F)(F)F)cc2)c2nccc(CO)c12", "pIC50": 8.30}
{"molecule": "O=C(/C=C/Cl)N1CC(c2nn(-c3ccc(OC(F)(F)F)cc3)c3nccc(CO)c23)C1", "pIC50": 8.48}
{"molecule": "C=C(F)C(=O)N1CC(c2nn(-c3ccc(OC(F)(F)F)cc3)c3nccc(N4CC(O)C4)c23)C1", "pIC50": 7.96}
{"molecule": "C=C(F)C(=O)N1CC(c2nn(-c3ccc(OC(F)(F)F)cc3)c3nccc(N4CC(F)(C(N)=O)C4)c23)C1", "pIC50": 8.29}
{"molecule": "C=C(F)C(=O)N1CC(c2nn(-c3ccc(OC(F)(F)F)cc3)c3nccc(N4CC(CO)(CO)C4)c23)C1", "pIC50": 8.05}
{"molecule": "C=C(F)C(=O)N1CC(c2nn(-c3ccc(OC(F)(F)F)cc3Cl)c3nccc(CO)c23)C1", "pIC50": 6.96}
{"molecule": "O=C(/C=C/CO)N1CC(c2nn(-c3ccc(OC(F)(F)F)cc3)c3ccnc(N4CC(O)C4)c23)C1", "pIC50": 7.08}
{"molecule": "C=CC(=O)NCc1nn(-c2ccc(OC(F)(F)F)cc2)c2nccc(N3CC(F)C3)c12", "pIC50": 8.20}
{"molecule": "C=CC(=O)NCc1nn(-c2ccc(OC(F)(F)F)cc2)c2cccc(C#N)c12", "pIC50": 7.28}
{"molecule": "C=CC(=O)NCc1nn(-c2ccc(OC(F)(F)F)cc2)c2nccc(NCCO)c12", "pIC50": 8.24}
{"molecule": "O=C(C1=CCCC1)N1CC(c2nn(-c3ccc(OC(F)(F)F)cc3)c3nccc(CO)c23)C1", "pIC50": 6.34}
{"molecule": "C=CC(=O)NCc1nn(-c2ccc(S(F)(F)(F)(F)F)cc2)c2nccc([C@@H](O)CO)c12 (stereo in doubt)", "pIC50": 7.15}
{"molecule": "C=CC(=O)NCc1nn(-c2ccc(S(F)(F)(F)(F)F)cc2)c2nccc([C@H](O)CO)c12 (stereo in doubt)", "pIC50": 7.77}
{"molecule": "C=CC(=O)NCc1nn(-c2cccc(OC(F)(F)F)c2)c2nccc([C@H](O)CO)c12 (stereo in doubt)", "pIC50": 7.48}
{"molecule": "O=C(/C=C/CF)N1CC(c2nn(-c3ccc(OC(F)(F)F)cc3)c3ccnc(N4CC(O)C4)c23)C1", "pIC50": 7.59}
{"molecule": "C=CC(=O)NCc1nn(-c2ccc(OC(F)(F)F)cc2)c2nccc(N3CC(N(C)C)C3)c12", "pIC50": 7.44}
{"molecule": "C=CC(=O)NCc1nn(-c2ccc(S(F)(F)(F)(F)F)cc2)c2cccc([C@@H](O)CO)c12 (single isomer, unassigned)", "pIC50": 7.31}
{"molecule": "C=CC(=O)N(C)Cc1nn(-c2ccc(OC(F)(F)F)cc2)c2nccc([C@@H](O)CO)c12", "pIC50": 7.66}
{"molecule": "CC#CC(=O)N1CC(c2nn(-c3ccc(OC(F)(F)F)cc3)c3nccc([C@H](O)CO)c23)C1", "pIC50": 7.37}
{"molecule": "C=CC(=O)NCc1nn(-c2ccc(OC(F)(F)F)cc2)c2nccc(N3CC(C)(O)C3)c12", "pIC50": 8.32}
{"molecule": "C=CC(=O)NCc1nn(-c2ccc(OC(F)(F)F)cc2)c2nccc(O[C@H]3C[C@@H](O)C3)c12", "pIC50": 7.41}

Values compiled from patent US12110276B2.
